test system: HOP-92 (Non-Small Cell Lung Carcinoma); test: Bliss excess, mean over the matrix (fraction); higher = more synergy;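 note: after 72 h of two-drug dosing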
Classify as follows. Reported Bliss excess greater than or equal to -0.02: Y. Reported Bliss excess below: N.

# compound, label
rows = [
    ("Cc1c2c(nn1C)CSCc1cc(n(C)n1)CSc1cc(c3ccccc3c1)OCCCc1c(C(=O)O)n(C)c3c-2c(Cl)ccc13 [AZD5991] + Cn1cnc2c(F)c(Nc3ccc(Br)cc3Cl)c(C(=O)NOCCO)cc21 [Selumetinib] (first compound max 1 µM, 7x7, partner max 3 µM)", "N"),
    ("COc1nnc2ccc(N3CCC(c4ccc(OCCN5CCN(C)C(=O)[C@H]5C)cc4)CC3)nn12 [AZD5153] + CC1(C)CCC(CN2CCN(c3ccc(C(=O)NS(=O)(=O)c4ccc(NCC5CCOCC5)c([N+](=O)[O-])c4)c(Oc4cnc5[nH]ccc5c4)c3)CC2)=C(c2ccc(Cl)cc2)C1 [Venetoclax] (first compound max 1 µM, 7x7, partner max 1 µM)", "N"),
    ("C[C@@H](c1ccc2nccn2c1)n1nnc2ncc(-c3cnn(C)c3)nc21 [Savolitinib] + CN(CC[C@H](CSC1=CC=CC=C1)NC2=C(C=C(C=C2)S(=O)(=O)NC(=O)C3=CC=C(C=C3)N4CCC(CC4)[C@H](C5=CC=CC=C5C6=CC=C(C=C6)Cl)O)S(=O)(=O)C(F)(F)F)CCO [AZD4320] (first compound max 1 µM, 7x7, partner max 1 µM)", "Y"),
    ("Cn1cnc2c(F)c(Nc3ccc(Br)cc3Cl)c(C(=O)NOCCO)cc21 [Selumetinib] + C[C@@H]1COCCN1C2=NC(=NC(=C2)C3(CC3)[S@](=N)(=O)C)C4=C5C=CNC5=NC=C4 [AZD6738] (first compound max 10 µM, 7x7, partner max 10 µM)", "Y"),
    ("Cc1cc2ncnn2cc1Nc1ncc2c(n1)n(C1CCOCC1)c(=O)n2C [AZD7648] + O=C(c1cc(Cc2n[nH]c(=O)c3ccccc23)ccc1F)N1CCN(C(=O)C2CC2)CC1 [Olaparib] (first compound max 10 µM, 7x7, partner max 10 µM)", "Y"),
    ("Cc1c2c(nn1C)CSCc1cc(n(C)n1)CSc1cc(c3ccccc3c1)OCCCc1c(C(=O)O)n(C)c3c-2c(Cl)ccc13 [AZD5991] + CCN(CCO)CCCOc1ccc2c(Nc3cc(CC(=O)Nc4cccc(F)c4)[nH]n3)ncnc2c1 [AZD2811] (first compound max 1 µM, 7x7, partner max 1 µM)", "Y"),
    ("Cc1c2c(nn1C)CSCc1cc(n(C)n1)CSc1cc(c3ccccc3c1)OCCCc1c(C(=O)O)n(C)c3c-2c(Cl)ccc13 [AZD5991] + Cc1cc2ncnn2cc1Nc1ncc2c(n1)n(C1CCOCC1)c(=O)n2C [AZD7648] (first compound max 1 µM, 7x7, partner max 10 µM)", "N"),
    ("CC(=O)c1c(C)c2cnc(Nc3ccc(N4CCNCC4)cn3)nc2n(C2CCCC2)c1=O [Palbociclib] + CC1(C)CCC(CN2CCN(c3ccc(C(=O)NS(=O)(=O)c4ccc(NCC5CCOCC5)c([N+](=O)[O-])c4)c(Oc4cnc5[nH]ccc5c4)c3)CC2)=C(c2ccc(Cl)cc2)C1 [Venetoclax] (first compound max 10 µM, 7x7, partner max 1 µM)", "Y"),
]
